- measured target: Nuclear receptor subfamily 1 group I member 3 (Homo sapiens) (UniProt Q14994)
- Sequence (Q14994 whole entry, looked up): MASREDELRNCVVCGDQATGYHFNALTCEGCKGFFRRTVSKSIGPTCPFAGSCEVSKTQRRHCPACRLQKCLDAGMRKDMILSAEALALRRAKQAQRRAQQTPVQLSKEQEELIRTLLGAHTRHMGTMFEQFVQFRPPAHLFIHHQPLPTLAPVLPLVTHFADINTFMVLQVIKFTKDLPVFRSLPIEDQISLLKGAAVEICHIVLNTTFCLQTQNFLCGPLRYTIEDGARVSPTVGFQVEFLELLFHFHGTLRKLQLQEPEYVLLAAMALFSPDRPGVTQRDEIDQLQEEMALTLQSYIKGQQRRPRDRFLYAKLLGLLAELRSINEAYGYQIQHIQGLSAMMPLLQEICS
- assay procedure: qHTS assay to identify small molecule antagonists of the constitutive androstane receptor (CAR) signaling pathway (AID 1224838);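 further: HepG2 cells stably expressing hCAR with CYP2B6 luciferase reporter stimulated by CITCO; on the % scale 0 is the no-effect control and ±100 the full control effect; nearly all actives have a fitted effect of over 40% in size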
- experimental parameters: HepG2-CYP2B6-hCAR luciferase, CITCO-stimulated, 24 h; series mostly up to 92.4 µM
Results filed as inconclusive are left out. Active and inactive are the calls of the source. The call rests on the fitted dose curve; in most records, active means well fitted inhibition curve with a large enough effect in the repeat runs; inconclusive means weak or mixed curves, or effect the other way; inactive means no such curve, though single readings can be large or run the other way.
quantity kind: activity, negative = inhibition

chem smiles: C[C@@H]1CN(c2c(F)c(F)c3c(=O)c(C(=O)O)cn(C4CC4)c3c2F)C[C@H](C)N1
measured target: Nuclear receptor subfamily 1 group I member 3 (Homo sapiens) (UniProt Q14994)
activity, negative = inhibition: 14.9% [at 19 µM] (inactive)
//
chem smiles: CN1CCN(c2c(F)cc3c(=O)c(C(=O)O)cn4c3c2SCC4)CC1
measured target: Nuclear receptor subfamily 1 group I member 3 (Homo sapiens) (UniProt Q14994)
activity, negative = inhibition: inactive
//
chem smiles: O=C1N(c2ccccc2)c2ccccc2C1(Cc1ccncc1)Cc1ccncc1
measured target: Nuclear receptor subfamily 1 group I member 3 (Homo sapiens) (UniProt Q14994)
activity, negative = inhibition: inactive
//
chem smiles: CN(C)C(=O)NC1(c2ccccc2)CCN(CCC[C@]2(c3ccc(Cl)c(Cl)c3)CCCN(C(=O)c3ccccc3)C2)CC1
measured target: Nuclear receptor subfamily 1 group I member 3 (Homo sapiens) (UniProt Q14994)
activity, negative = inhibition: -20.2% [at 19 µM] (inactive)
//
chem smiles: O=C(O)CN(CCN(CC(=O)O)CC(=O)O)CCN(CC(=O)O)CC(=O)O
measured target: Nuclear receptor subfamily 1 group I member 3 (Homo sapiens) (UniProt Q14994)
activity, negative = inhibition: -23.7% [at 19 µM] (inactive)
//
chem smiles: CN1CCN(N)CC1
measured target: Nuclear receptor subfamily 1 group I member 3 (Homo sapiens) (UniProt Q14994)
activity, negative = inhibition: inactive

List reported activity, negative = inhibition for each of these compounds:
1. O=C(O)c1cccc(Cl)c1Cl
2. CC(C)Nc1nc(N)nc(Cl)n1
3. COc1cc(N)c(Cl)cc1C(=O)NC1CCN(Cc2ccccc2)CC1
4. Cc1c(C(=O)NCCO)[n+](=O)c2ccccc2n1[O-]
5. CCN(O)CC

Given back:
1. inactive
2. inactive
3. inactive
4. inactive
5. inactive

Asked: Given the compound Cc1cc(S(=O)(=O)O)c(N)cc1Cl , write its reported activity, negative = inhibition.
Given back: inactive
